Assay: Protease stability in simulated intestinal fluids (FaSSIF) (Table 7)
Assay type: in vitro ADME
Conditions: fassif with pancreatin, 120 min, 37° C., read-out: Remaining percentage of peptide compound, FaSSIF 120 (min)
Protocol: Studies were carried out in simulated intestinal fluid (SIF) and simulated gastric fluid (SGF) to evaluate gastric stability of the peptide compounds disclosed herein. […] To 76 μL of the Pepsin-SGF buffer, 4 μL of the 20 μM peptide stock solution was added and incubated at 37° C. […] The samples were centrifuged for 20 minutes and an aliquot of the supernatant 100 μL were transferred to a LoBind-MTP plate and analyzed by LCMS/MS. […]
Numbered stars: 1 amine (or outer) side, 2 acyl side, 3 side chain; on linkers, the order of the positions; unused ones are H or OH. Bridge positions count the residues as written; N and C are the ends. Square brackets hold non-standard residues; d marks the D form. Peptide text beside a SMILES is read from it. * marks the point of attachment. Lys(Me,(CH2)4NMe(CH2)4CO) = CN(CCCCC(=O)[*:3])CCCCN(C)CCCC[C@H](N[*:1])C(=O)[*:2]; Trp(7-Me) = Cc1cccc2c(C[C@H](N)C(=O)O)c[nH]c12; Trp(1-Me) = Cn1cc(C[C@H](N)C(=O)O)c2ccccc21; NH(2-(3-pyridyl)ethyl) = c1cncc(CCN*)c1; NH(CH2)9CO = O=C(CCCCCCCCCN[*:1])[*:2]; 2Nal = N[C@@H](Cc1ccc2ccccc2c1)C(=O)O; d2Nal = N[C@H](Cc1ccc2ccccc2c1)C(=O)O; 3Pal = N[C@@H](Cc1cccnc1)C(=O)O; Aun = NCCCCCCCCCCC(=O)O; Thp = NC1(C(=O)O)CCOCC1; Me2NCH2CH2 = CN(C)CC*; Aib = CC(C)(N)C(=O)O; Sar = CNCC(=O)O
endpoint-name: remaining at 2 h, 1 µM (%)
Reply with just the number (in %).

Known remaining at 2 h, 1 µM results, listed for orientation:
CN(C)CCOc1ccc(C[C@@H]2NC(=O)C3(CCOCC3)NC(=O)[C@H](CCC(N)=O)NC(=O)[C@H](Cc3cn(C)c4ccccc34)NC(=O)CCCCN(C)CCCCN(C)CCCC[C@@H](C(=O)NCC(=O)NCCc3cccnc3)NC(=O)C(C)(C)NC(=O)[C@H](Cc3ccc4ccccc4c3)NC2=O)cc1 [compound 25] ([Trp(1-Me)]Q[Thp]Y(Me2NCH2CH2)[2Nal][Aib][Lys(Me,(CH2)4NMe(CH2)4CO)]G-{NH(2-(3-pyridyl)ethyl)}; lactam N-7) | 95
Cc1cccc2c(C[C@@H]3NC(=O)CCCCCCCCCCNC(=O)CC[C@@H](C(=O)N[C@@H](CC(N)=O)C(=O)N[C@@H](Cc4cccnc4)C(=O)N(C)CC(N)=O)NC(=O)C(C)(C)NC(=O)[C@@H](Cc4ccc5ccccc5c4)NC(=O)[C@H](Cc4ccc(OCCN(C)C)cc4)NC(=O)C4(CCOCC4)NC(=O)[C@H](CCC(N)=O)NC3=O)c[nH]c12 [compound 4] ([Aun][Trp(7-Me)]Q[Thp]Y(Me2NCH2CH2)[d2Nal][Aib]EN[3Pal][Sar]-NH2; lactam N-8) | 87

**Query** Reported remaining at 2 h, 1 µM for CC(=O)NCCCC[C@@H]1NC(=O)[C@H](Cc2c[nH]c3ccccc23)NC(=O)CCCCN(C)CCCCN(C)CCCC[C@@H](C(=O)N[C@@H](CO)C(=O)N[C@@H](Cc2cccnc2)C(=O)N(C)CC(N)=O)NC(=O)C(C)(C)NC(=O)[C@H](Cc2ccc3ccccc3c2)NC(=O)[C@H](Cc2ccc(OCCN(C)C)cc2)NC(=O)C2(CCOCC2)NC1=O [compound 42] (WK(Ac)[Thp]Y(Me2NCH2CH2)[2Nal][Aib][Lys(Me,(CH2)4NMe(CH2)4CO)]S[3Pal][Sar]-NH2; lactam N-7) : what is it?
**Result** 42

**Query** Reported remaining at 2 h, 1 µM for Cc1cccc2c(C[C@@H]3NC(=O)CCCCCCCCCNC(=O)CC[C@@H](C(=O)N[C@@H](CC(N)=O)C(=O)N[C@@H](Cc4cccnc4)C(=O)N(C)CC(N)=O)NC(=O)C(C)(C)NC(=O)[C@H](Cc4ccc5ccccc5c4)NC(=O)[C@H](Cc4ccc(OCCN(C)C)cc4)NC(=O)C4(CCOCC4)NC(=O)[C@H](CC(C)C)NC3=O)c[nH]c12 [compound 8] ([NH(CH2)9CO][Trp(7-Me)]L[Thp]Y(Me2NCH2CH2)[2Nal][Aib]EN[3Pal][Sar]-NH2; lactam N-8) : what is it?
**Result** 79
